# system: D(2) dopamine receptor (Rattus norvegicus)
# Sequence (P61169 whole entry): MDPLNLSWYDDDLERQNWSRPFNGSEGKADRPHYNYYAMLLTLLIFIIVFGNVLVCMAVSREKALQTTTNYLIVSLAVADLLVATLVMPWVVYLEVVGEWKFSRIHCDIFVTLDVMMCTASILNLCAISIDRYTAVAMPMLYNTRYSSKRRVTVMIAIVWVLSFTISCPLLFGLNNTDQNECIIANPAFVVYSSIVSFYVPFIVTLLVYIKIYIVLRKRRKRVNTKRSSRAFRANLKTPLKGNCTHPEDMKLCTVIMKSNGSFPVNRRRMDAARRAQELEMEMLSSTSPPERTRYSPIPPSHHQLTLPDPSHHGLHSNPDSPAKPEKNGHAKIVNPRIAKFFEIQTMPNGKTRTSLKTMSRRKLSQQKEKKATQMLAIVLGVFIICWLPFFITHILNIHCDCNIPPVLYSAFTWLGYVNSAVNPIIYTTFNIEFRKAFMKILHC
# assay comment: Inhibition constant for in vitro inhibition of [3H]spiperone binding to striatal membranes Dopamine receptor D2
quantity name: Ki (µM)
Your answer is read as µM, so omit the unit and give the number.

IN: Give D(2) dopamine receptor (Rattus norvegicus) Ki for the following compound: CCc1c(C)[nH]c2c1C(=O)C(CCN1CCN(c3ccccc3OC)CC1)CC2 (configuration not stated)
OUT: 0.0282

IN: Give D(2) dopamine receptor (Rattus norvegicus) Ki for the following compound: CCc1c(C)[nH]c2c1C(=O)C(CCN1CCOCC1)CC2 (configuration not stated)
OUT: 0.589
